Test system: MCF7
experiment: percentage of EdU-negative (G0-arrested) nuclei per well, 72 h; higher = more G0 arrest;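 also: secreted proteins added to cultured cells, EdU pulse at the end, nuclei found by Hoechst imaging, EdU status from nuclear versus surrounding ring intensity ratio, PBS as neutral control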
studyConditions: protein concentration 0.225 µM; reference: sequence is the full UniProt precursor, the tested protein was the secreted form or ectodomain

{"residueCodes": "MKGSIFTLFLFSVLFAISEVRSKESVRLCGLEYIRTVIYICASSRWRRHQEGIPQAQQAETGNSFQLPHKREFSEENPAQNLPKVDASGEDRLWGGQMPTEELWKSKKHSVMSRQDLQTLCCTDGCSMTDLSALC [Q9Y5Q6]", "unit": "%", "percentage of EdU-negative": 27.6}
{"residueCodes": "MWQLLLPTALLLLVSAGMRTEDLPKAVVFLEPQWYSVLEKDSVTLKCQGAYSPEDNSTQWFHNENLISSQASSYFIDAATVNDSGEYRCQTNLSTLSDPVQLEVHIGWLLLQAPRWVFKEEDPIHLRCHSWKNTALHKVTYLQNGKDRKYFHHNSDFHIPKATLKDSGSYFCRGLVGSKNVSSETVNITITQGLAVSTISSFSPPGYQVSFCLVMVLLFAVDTGLYFSVKTNI", "unit": "%", "percentage of EdU-negative": 25.5}
{"residueCodes": "MLLAWVQAFLVSNMLLAEAYGSGGCFWDNGHLYREDQTSPAPGLRCLNWLDAQSGLASAPVSGAGNHSYCRNPDEDPRGPWCYVSGEAGVPEKRPCEDLRCPETTSQALPAFTTEIQEASEGPGADEVQVFAPANALPARSEAAAVQPVIGISQRVRMNSKEKKDLGTLGYVLGITMMVIIIAIGAGIILGYSYKRGKDLKEQHDQKVCEREMQRITLPLSAFTNPTCEIVDEKTVVVHTSQTPVDPQEGTTPLMGQAGTPGA [Q96FE7]", "unit": "%", "percentage of EdU-negative": 25.1}
{"residueCodes": "MKKFFTVAILAGSVLSTAHGSLLNLKAMVEAVTGRSAILSFVGYGCYCGLGGRGQPKDEVDWCCHAHDCCYQELFDQGCHPYVDHYDHTIENNTEIVCSDLNKTECDKQTCMCDKNMVLCLMNQTYREEYRGFLNVYCQGPTPNCSIYEPPPEEVTCSHQSPAPPAPP [Q9BZM2]", "unit": "%", "percentage of EdU-negative": 26}

====

Test system: hTERT-HMEC
experiment: percentage of EdU-negative (G0-arrested) nuclei per well, 72 h; higher = more G0 arrest
studyConditions: protein concentration 0.225 µM; reference: sequence is the full UniProt precursor, the tested protein was the secreted form or ectodomain
In this section we review reported percentage of EdU-negative values for a set of sequences.

{"residueCodes": "MDLSLLWVLLPLVTMAWGQYGDYGYPYQQYHDYSDDGWVNLNRQGFSYQCPQGQVIVAVRSIFSKKEGSDRQWNYACMPTPQSLGEPTECWWEEINRAGMEWYQTCSNNGLVAGFQSRYFESVLDREWQFYCCRYSKRCPYSCWLTTEYPGHYGEEMDMISYNYDYYIRGATTTFSAVERDRQWKFIMCRMTEYDCEFANV", "percentage of EdU-negative": "4.92%"}
{"residueCodes": "MSALWLLLGLLALMDLSESSNWGCYGNIQSLDTPGASCGIGRRHGLNYCGVRASERLAEIDMPYLLKYQPMMQTIGQKYCMDPAVIAGVLSRKSPGDKILVNMGDRTSMVQDPGSQAPTSWISESQVSQTTEVLTTRIKEIQRRFPTWTPDQYLRGGLCAYSGGAGYVRSSQDLSCDFCNDVLARAKYLKRHGF [Q8N1E2]", "percentage of EdU-negative": "6.97%"}
{"residueCodes": "MLWLFQSLLFVFCFGPGNVVSQSSLTPLMVNGILGESVTLPLEFPAGEKVNFITWLFNETSLAFIVPHETKSPEIHVTNPKQGKRLNFTQSYSLQLSNLKMEDTGSYRAQISTKTSAKLSSYTLRILRQLRNIQVTNHSQLFQNMTCELHLTCSVEDADDNVSFRWEALGNTLSSQPNLTVSWDPRISSEQDYTCIAENAVSNLSFSVSAQKLCEDVKIQYTDTKMILFMVSGICIVFGFIILLLLVLRKRRDSLSLSTQRTQGPAESARNLEYVSVSPTNNTVYASVTHSNRETEIWTPRENDTITIYSTINHSKESKPTFSRATALDNVV [Q96DU3]", "percentage of EdU-negative": "5.94%"}
{"residueCodes": "MGKGDPKKPRGKMSSYAFFVQTCREEHKKKHPDASVNFSEFSKKCSERWKTMSAKEKGKFEDMAKADKARYEREMKTYIPPKGETKKKFKDPNAPKRPPSAFFLFCSEYRPKIKGEHPGLSIGDVAKKLGEMWNNTAADDKQPYEKKAAKLKEKYEKDIAAYRAKGKPDAAKKGVVKAEKSKKKKEEEEDEEDEEDEEEEEDEEDEDEEEDDDDE", "percentage of EdU-negative": "5.64%"}
{"residueCodes": "MKTGHFEIVTMLLATMILVDIFQVKAEVLDMADNAFDDEYLKCTDRMEIKYVPQLLKEEKASHQQLDTVWENAKAKWAARKTQIFLPMNFKDNHGIALMAYISEAQEQTPFYHLFSEAVKMAGQSREDYIYGFQFKAFHFYLTRALQLLRKPCEASSKTVVYRTSQGTSFTFGGLNQARFGHFTLAYSAKPQAANDQLTVLSIYTCLGVDIENFLDKESERITLIPLNEVFQVSQEGAGNNLILQSINKTCSHYECAFLGGLKTENCIENLEYFQPIYVYNPGEKNQKLEDHSEKNWKLEDHGEKNQKLEDHGVKILEPTQIPGMKIPEPFPLPEDKSQGNINNPTPGPVPVPGPKSHPSASSGKLLLPQFGMVIILISVSAINLFVAL", "percentage of EdU-negative": "5.22%"}
{"residueCodes": "MRTLTILTAVLLVALQAKAEPLQAEDDPLQAKAYEADAQEQRGANDQDFAVSFAEDASSSLRALGSTRAFTCHCRRSCYSTEYSYGTCTVMGINHRFCCL", "percentage of EdU-negative": "5.92%"}
